assayed_target: ATP-dependent Clp protease proteolytic subunit (Bacillus subtilis (strain 168)) (UniProt P80244)
Sequence (P80244 whole entry, looked up): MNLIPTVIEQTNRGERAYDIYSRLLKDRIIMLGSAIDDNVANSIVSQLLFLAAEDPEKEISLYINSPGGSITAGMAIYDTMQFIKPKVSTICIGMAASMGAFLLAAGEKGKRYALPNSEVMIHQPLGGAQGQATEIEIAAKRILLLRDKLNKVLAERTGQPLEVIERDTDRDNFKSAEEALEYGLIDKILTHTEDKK
assay_details: qHTS Assay for Activators of ClpP; further: potency means the concentration at half of the fitted maximal effect; further: the source files actives as falling curves though it sought activators and does not explain the sign; nearly all actives have a fitted effect of over 65% in size
condition_label: purified B. subtilis ClpP, FRET peptide cleavage, 20 min; series mostly up to 57.5 µM
Screen size: about 340,000 compounds; about 6,400 (1.9%) were called active. Another 4% or so got no clear call; they are omitted. What follows is part of a selection rich in actives, with near analogues and random picks from the rest.
endpoint_label: Potency

> print(dat)
                                    compound  endpoint.label          measured
 1  COC(=O)C1=C(c2ccc(OCc3ccccc3)cc2)C[C@@H]2CC[C@H]1N2C(=O)NCc1cccc(F)c1         Potency          inactive
 2  CCn1cc(CN2CCCC(C(=O)c3cccc(C(F)(F)F)c3)C2)cn1 (stereo unspecified)         Potency          inactive
 3  CCOC(=O)c1c(-c2ccccc2)oc2ccc(OC(=O)N(C)C)cc12         Potency  3.16 µM (active)
 4  Cc1cc(OCc2cc(C(=O)O)oc2C)c2c3c(c(=O)oc2c1)CCCC3         Potency  28.2 µM (active)
 5  O=c1[nH]c2ccccc2n1C1CCN(C(c2ccnc3ccccc23)c2nnnn2Cc2ccccc2)CC1 (stereo unspecified)         Potency          inactive
 6  COC1C(O)C(C)OC(OC2CCC3(C=O)C(CCC4C3CCC3(C)C(C5=CC(=O)OC5)CCC43O)C2)C1O (stereo unspecified)         Potency          inactive
 7  S=C(NCCc1ccccc1)N1Cc2cc(N3CCOCC3)ccc2-n2nncc2C1         Potency          inactive
 8  CC(=CCOc1ccc2ccc(=O)oc2c1)C1=CC(=O)C(C)(C)O1         Potency          inactive
 9  CCOc1ccc(CNC(=O)c2cccc(Nc3nc4ccccc4n4nnnc34)c2)cc1OC         Potency          inactive
10  CCOC(=O)c1cccc(C2=C(CNC(=O)c3ccncc3)[C@H]3CC[C@@H](C2)N3Cc2ccccc2)c1         Potency          inactive
11  c1cc2c(cc1C1OCC3C(c4ccc5c(c4)OCO5)OCC13)OCO2 (stereo unspecified)         Potency          inactive
12  C[C@H]1CN([C@@H](C)CO)C(=O)CCCn2nncc2CO[C@H]1CN(C)C(=O)Oc1cccc2ccccc12         Potency          inactive
13  COc1ccc(S(=O)(=O)NCc2ccc(C(=O)N3CCC4(CC3)OCCO4)cc2)cc1         Potency          inactive
14  Cc1ccc(Cn2c(C)c3cnn(CC(=O)N4CCC5(CC4)OCCO5)c(=O)c3c2C)cc1         Potency          inactive
15  COc1ccc(-c2nc(CS(=O)CC(=O)N3CCC4(CC3)OCCO4)c(C)o2)cc1 (stereo unspecified)         Potency  31.6 µM (active)
16  O=C(CCCn1c(=O)[nH]c2cc(Cl)ccc2c1=O)N1CCC2(CC1)OCCO2         Potency  28.2 µM (active)
17  COC(=O)C[C@H]1CC[C@H]2NC[C@@H](O)COC[C@@H]2O1         Potency          inactive
18  Cc1nc2nc(C)c(CCC(=O)N3CCC4(CC3)OCCO4)c(C)n2n1         Potency          inactive
19  O=c1[nH]c2ccccc2n1C1CCN(C(c2ccccc2)c2nnnn2Cc2ccccc2)CC1 (stereo unspecified)         Potency          inactive
20  COc1cc(Cn2c(N)c(C(=O)NCc3ccco3)c3nc4ccccc4nc32)cc(OC)c1OC         Potency  28.2 µM (active)
21  Fc1ccc(C2N3CCCN23)cc1 (stereo unspecified)         Potency  28.2 µM (active)

These measurements were taken from PubChem BioAssay AID651965.
